# target.of.assay: human VR1 (Homo sapiens, UniProt Q8NER1)
# Construct: expressed in transfected cells; host or cells: HEK293
# Sequence (Q8NER1 whole entry): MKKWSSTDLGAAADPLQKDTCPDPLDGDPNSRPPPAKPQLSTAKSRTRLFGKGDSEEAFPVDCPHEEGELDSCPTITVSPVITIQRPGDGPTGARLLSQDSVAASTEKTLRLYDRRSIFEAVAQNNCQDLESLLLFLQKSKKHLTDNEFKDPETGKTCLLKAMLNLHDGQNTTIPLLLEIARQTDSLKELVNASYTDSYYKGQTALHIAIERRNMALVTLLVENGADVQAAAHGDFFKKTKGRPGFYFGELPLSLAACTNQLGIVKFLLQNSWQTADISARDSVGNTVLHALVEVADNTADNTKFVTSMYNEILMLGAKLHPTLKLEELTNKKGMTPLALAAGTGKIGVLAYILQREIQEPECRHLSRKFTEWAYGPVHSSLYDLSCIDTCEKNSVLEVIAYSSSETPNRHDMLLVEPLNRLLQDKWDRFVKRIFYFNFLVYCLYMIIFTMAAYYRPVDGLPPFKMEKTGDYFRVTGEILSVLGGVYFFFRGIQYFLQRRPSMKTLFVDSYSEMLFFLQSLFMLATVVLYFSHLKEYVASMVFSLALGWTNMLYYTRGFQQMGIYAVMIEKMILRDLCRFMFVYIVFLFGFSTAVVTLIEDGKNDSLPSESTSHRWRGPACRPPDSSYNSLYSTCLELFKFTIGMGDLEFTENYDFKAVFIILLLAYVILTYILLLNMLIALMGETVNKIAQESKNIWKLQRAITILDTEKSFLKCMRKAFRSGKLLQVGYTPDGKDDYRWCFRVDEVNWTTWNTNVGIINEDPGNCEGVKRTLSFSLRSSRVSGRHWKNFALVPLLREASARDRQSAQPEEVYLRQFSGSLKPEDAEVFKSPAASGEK
# measurement.notes: Human VR1 functional assay (intracellular Ca++, FLIPR, capsaicin challenge)
# Assay type: cell-based
# measurement.conditions: FLIPR functional assay IC50 hVR1 60 min, 60 min
pIC50: −log10 of the molar value.
experimental.readout: pIC50

[I] CCCC1CCN(c2ccc(C(=O)Nc3cnc4ccccc4c3)cc2)CC1
[II] CCC=CCCCCCN(C)c1ccc(C(=O)Nc2cnc3ccccc3c2)cc1
Lower value of pIC50 belongs to which: I or II ? Use the label to indicate which entry you chose.
I
(I: 6.77, II: 7.32)
